Tested on: Rattus norvegicus
Assay: Positive allosteric modulation of mGlu2 receptor in Sprague-Dawley rat sleep-wake EEG paradigm model assessed as effect on light sleep stage at 3 mg/kg, po after 4 hrs by electroencephalogram analysis
Format: functional, organism-based
Design: dose 3 mg/kg
The source made the active and inactive calls. The calls are words filed in the database; no cut-off is given here.
Observable: Activity

>>> result("CC(C)Cn1ccc(N2CCC(c3ccccc3)CC2)c(Cl)c1=O")
"inactive"
>>> result("CCCCn1ccc(N2CCC(c3ccccc3)CC2)c(Cl)c1=O")
"inactive"
>>> result("N#Cc1c(N2CCC(c3ccccc3)CC2)ccn(CC2CC2)c1=O")
"inactive"
>>> result("O=c1c(Cl)c(N2CCC(c3ccccc3)CC2)ccn1CC1CC1")
"inactive"

###

AUC(0-inf) for assorted compounds
Assay: AUC (0 to infinity) in Sprague-Dawley rat at 10 mg/kg, po
Assay type: ADME, organism-based
Set-up: time infinity, dose 10 mg/kg, route oral
Details: plasma
Quick reminder: number only, in ng·h/mL, skip the unit.

>>> numeric_value("N#Cc1c(N2CCC(c3ccccc3)CC2)ccn(CC2CC2)c1=O")
4350
>>> numeric_value("CCCCn1ccc(N2CCC(c3ccccc3)CC2)c(Cl)c1=O [JNJ-40411813]")
2250
>>> numeric_value("O=c1c(Cl)c(N2CCC(c3ccccc3)CC2)ccn1CC1CC1")
2310

Prompt: Data request, read-out AUC(0-inf), for "CC(C)Cn1ccc(N2CCC(c3ccccc3)CC2)c(Cl)c1=O"
Response: 3460

###

Experiment: Dissociation constant, pKa of the compound
Assay type: physicochemical
Observable: pKa

Prompt: Fill in the blank: the reported pKa of "CCCCn1ccc(N2CCC(c3ccccc3)CC2)c(Cl)c1=O" is ____.
Response: < 2

###

Assay: AUC (0 to infinity) in dog at 2.5 mg/kg, po
Type: ADME, organism-based, Canis lupus familiaris
Set-up: time infinity, dose 2.5 mg/kg, route oral
Details: plasma
Observable: AUC(0-inf) (ng·h/mL)
Report as a plain number; the unit ng·h/mL is understood.

Prompt: Looking for the measured AUC(0-inf) of CCCCn1ccc(N2CCC(c3ccccc3)CC2)c(Cl)c1=O [JNJ-40411813] , can you help?
Response: 743

###

Assay: Ratio of drug level in brain to plasma in Swiss mouse at 10 mg/kg, sc after 1 hr
Assay type: ADME, organism-based
Set-up: dose 10 mg/kg, route subcutaneous
Details: brain and plasma, read-out: BPR
Form field: Kp at 1 h (one value per entry).
Provide a numeric answer; units are not to be included.

The following compounds have reported results that may help.
>>> numeric_value("O=c1c(Cl)c(N2CCC(c3ccccc3)CC2)ccn1CC1CC1")
0.9
>>> numeric_value("N#Cc1c(N2CCC(c3ccccc3)CC2)ccn(CC2CC2)c1=O")
0.3
>>> numeric_value("CC(C)Cn1ccc(N2CCC(c3ccccc3)CC2)c(Cl)c1=O")
0.8

Kindly review the next compound as well.
Prompt: What does the data say about its Kp at 1 h? Entry: "CCCCn1ccc(N2CCC(c3ccccc3)CC2)c(Cl)c1=O"
Response: 1

###

Molecular target: UniProt:Q14416
Assay: Positive allosteric modulation of human mGlu2 receptor expressed in CHO cells assessed as potentiation of glutamate-induced effect incubated for 30 mins prior to [35S]GTPgamma addition measured after 30 mins relative to glutamate
Assay type: functional, cell-based
Sequence (Q14416 19-872 limits assumed): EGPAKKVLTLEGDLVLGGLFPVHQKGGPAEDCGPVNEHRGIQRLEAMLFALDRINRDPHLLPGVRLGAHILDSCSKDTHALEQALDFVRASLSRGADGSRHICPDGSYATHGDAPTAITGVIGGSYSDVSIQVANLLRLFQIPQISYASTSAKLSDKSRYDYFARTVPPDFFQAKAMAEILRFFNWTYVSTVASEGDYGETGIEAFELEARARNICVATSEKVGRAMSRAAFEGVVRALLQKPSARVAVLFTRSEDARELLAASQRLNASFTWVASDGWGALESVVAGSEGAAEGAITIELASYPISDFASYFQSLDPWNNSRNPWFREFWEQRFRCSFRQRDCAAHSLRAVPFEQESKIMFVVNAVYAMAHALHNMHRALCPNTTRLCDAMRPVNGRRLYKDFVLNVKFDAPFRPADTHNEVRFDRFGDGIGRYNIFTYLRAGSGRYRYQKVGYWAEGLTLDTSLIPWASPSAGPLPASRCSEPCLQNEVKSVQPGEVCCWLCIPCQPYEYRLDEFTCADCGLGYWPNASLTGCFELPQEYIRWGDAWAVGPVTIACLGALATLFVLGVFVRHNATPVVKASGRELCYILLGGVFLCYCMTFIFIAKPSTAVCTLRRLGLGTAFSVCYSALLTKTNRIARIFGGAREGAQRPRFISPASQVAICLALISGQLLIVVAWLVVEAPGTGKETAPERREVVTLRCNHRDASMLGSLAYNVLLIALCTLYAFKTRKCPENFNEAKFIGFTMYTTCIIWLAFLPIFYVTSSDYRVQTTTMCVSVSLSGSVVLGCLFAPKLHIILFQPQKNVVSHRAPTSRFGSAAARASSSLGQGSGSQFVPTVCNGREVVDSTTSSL
Observable: Emax

>>> result("O=c1c(C(F)(F)F)c(N2CCC(c3ccccc3)CC2)ccn1CC1CC1")
"239%"

Prompt: Look up Emax for this molecule: "N#Cc1c(N2CCC(c3ccccc3)CC2)ccn(CC2CCC2)c1=O"
Response: 269%

Prompt: What measured Emax goes with "N#Cc1c(N2CCC(c3cc(F)cc(F)c3)CC2)ccn(CC2CC2)c1=O" ?
Response: 234%

Prompt: Recorded Emax for "CC(C)CCn1ccc(OCc2ccccc2)c(C#N)c1=O" , please?
Response: 173%

###

Experiment: Tmax in dog at 1 mg/kg, iv
Type: ADME, organism-based, Canis lupus familiaris
Set-up: dose 1 mg/kg, route intravenous
Conditions: in vivo
Observable: Tmax (min)
Supply the numeric figure in min, leaving out any unit text.

Prompt: Requested read-out: Tmax. Entry: CCCCn1ccc(N2CCC(c3ccccc3)CC2)c(Cl)c1=O [JNJ-40411813]
Response: 30

###

Experiment: Clearance in dog at 1 mg/kg, iv
Assay type: ADME, organism-based, Canis lupus familiaris
Design: dose 1 mg/kg, route intravenous
Conditions: in vivo
Observable: clearance (mL/min/kg)
Number only, in mL/min/kg; omit the unit.

Prompt: Look up clearance: CCCCn1ccc(N2CCC(c3ccccc3)CC2)c(Cl)c1=O [JNJ-40411813]
Response: 23

###

Recorded Emax values for a group of compounds are listed next.
Molecular target: Metabotropic glutamate receptor 2 (Homo sapiens)
Test: Positive allosteric modulation of human mGlu2 receptor expressed in CHO cells assessed as potentiation of glutamate-induced effect incubated for 30 mins prior to [35S]GTPgamma addition measured after 30 mins relative to glutamate
Type: functional, cell-based
API: value field is a number in %; no unit string.

Example cases with answers are listed next.
>>> numeric_value("N#Cc1c(N2CCC(c3cccc(F)c3)CC2)ccn(CC2CC2)c1=O")
268
>>> numeric_value("CC(C)CCn1ccc(N2CCN(Cc3ccccc3)CC2)c(C#N)c1=O")
304
>>> numeric_value("N#Cc1c(N2CCC(c3ccccc3F)CC2)ccn(CC2CC2)c1=O")
282
>>> numeric_value("N#Cc1c(N2CCC(c3cccc(C(F)(F)F)c3)CC2)ccn(CC2CC2)c1=O")
191
>>> numeric_value("N#Cc1c(N2CCC(c3ccccc3)CC2)ccn(CCC2CC2)c1=O")
316

Prompt: Reported Emax for "CC(C)CCn1ccc(N(C)Cc2ccccc2)c(C#N)c1=O" : what is it?
Response: 249

Prompt: Entry under review: "CC(C)CCn1ccc(N2CCN(c3ccccc3)CC2)c(C#N)c1=O" . Reported Emax?
Response: 118

Prompt: Can you share its Emax? I mean this compound: "N#Cc1c(N2CCC(c3c(F)cccc3F)CC2)ccn(CC2CC2)c1=O"
Response: 291

Prompt: Record request: Emax value, item "COc1ccc(C2CCN(c3ccn(CC4CC4)c(=O)c3C#N)CC2)cc1"
Response: 257

###

Experiment: Metabolic stability in rat liver microsomes assessed as compound metabolized at 5 uM after 15 mins by MS/MS analysis in presence of NADPH
Format: ADME
Conditions: read-out: Drug metabolism
Reported metabolised at 0.25 h, 5 µM values follow for various compounds
Hi! Could you send only the number? It should be in %, unit omitted.

Prompt: Data request, read-out metabolised at 0.25 h, 5 µM, for "N#Cc1c(N2CCC(c3cccc(C(F)(F)F)c3)CC2)ccn(CC2CC2)c1=O"
Response: 39

Prompt: Given "CC(C)CCn1ccc(N(C)Cc2ccccc2)c(C#N)c1=O" , state its recorded metabolised at 0.25 h, 5 µM.
Response: 100

Prompt: Which metabolised at 0.25 h, 5 µM value belongs to "N#Cc1c(N2CCC(c3ccccc3)CC2)ccn(CC2CCC2)c1=O" ?
Response: 86

Prompt: Query (compound): "CC(C)CCn1ccc(N2CCN(c3ccccc3)CC2)c(C#N)c1=O" ; field requested: metabolised at 0.25 h, 5 µM
Response: 90

###

Assay: Metabolic stability in human liver microsomes assessed as compound metabolized at 5 uM after 15 mins by MS/MS analysis in presence of NADPH
Format: ADME
Details: read-out: Drug metabolism
Observable: metabolised at 0.25 h, 5 µM
Number first, unit second.

Some solved entries appear below for comparison.
>>> result("CC(C)CCn1ccc(N2CCN(Cc3ccccc3)CC2)c(C#N)c1=O")
"38%"
>>> result("CCCCn1ccc(N2CCC(c3ccccc3)CC2)c(C#N)c1=O")
"30%"

Please turn your attention to the following entry.
Prompt: Return reported metabolised at 0.25 h, 5 µM; argument: "N#Cc1c(N2CCC(c3cccc(C(F)(F)F)c3)CC2)ccn(CC2CC2)c1=O"
Response: 35%

###

Molecular target: UniProtKB Q14416
Test: Positive allosteric modulation of human mGlu2 receptor expressed in CHO cells assessed as potentiation of glutamate-induced effect incubated for 30 mins prior to [35S]GTPgamma addition measured after 30 mins
Type: functional, cell-based
Sequence (Q14416 whole entry): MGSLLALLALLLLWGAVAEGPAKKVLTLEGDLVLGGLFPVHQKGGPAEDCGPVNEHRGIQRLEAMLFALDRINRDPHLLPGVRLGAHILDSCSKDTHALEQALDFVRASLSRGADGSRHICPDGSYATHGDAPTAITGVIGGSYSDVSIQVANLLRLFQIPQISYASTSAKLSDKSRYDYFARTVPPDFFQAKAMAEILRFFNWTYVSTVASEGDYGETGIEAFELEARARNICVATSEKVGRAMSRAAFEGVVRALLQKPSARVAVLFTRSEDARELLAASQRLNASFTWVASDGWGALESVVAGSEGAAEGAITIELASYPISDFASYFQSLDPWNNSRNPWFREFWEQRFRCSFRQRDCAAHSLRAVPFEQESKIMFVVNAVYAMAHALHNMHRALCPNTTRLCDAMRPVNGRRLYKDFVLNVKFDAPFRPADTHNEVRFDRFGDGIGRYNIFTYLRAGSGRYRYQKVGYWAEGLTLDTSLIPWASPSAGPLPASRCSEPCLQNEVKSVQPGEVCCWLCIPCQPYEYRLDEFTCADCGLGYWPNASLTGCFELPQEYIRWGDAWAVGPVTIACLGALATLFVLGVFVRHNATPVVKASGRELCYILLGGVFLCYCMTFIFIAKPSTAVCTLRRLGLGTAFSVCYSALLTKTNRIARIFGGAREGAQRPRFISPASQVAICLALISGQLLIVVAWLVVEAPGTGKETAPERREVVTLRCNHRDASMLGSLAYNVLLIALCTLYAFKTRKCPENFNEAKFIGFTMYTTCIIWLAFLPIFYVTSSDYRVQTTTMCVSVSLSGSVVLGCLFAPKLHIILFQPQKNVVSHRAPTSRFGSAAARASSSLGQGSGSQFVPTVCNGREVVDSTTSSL
Observable: pEC50
Please express pEC50 as -log10 of the molar concentration.

Solved cases (4 shown):
>>> numeric_value("CC(C)Cn1ccc(N2CCC(c3ccccc3)CC2)c(C#N)c1=O")
6.55
>>> numeric_value("CC(C)CCn1ccc(N2CCC(c3ccccc3)CC2)c(C#N)c1=O")
6.99
>>> numeric_value("N#Cc1c(N2CCC(c3ccccc3Cl)CC2)ccn(CC2CC2)c1=O")
7.31
>>> numeric_value("O=c1c(Cl)c(N2CCC(c3ccccc3)CC2)ccn1CC1CC1")
6.77

Prompt: What value of pEC50 has been recorded for this entry: "CC(C)CCn1ccc(N2CCCCC2)c(C#N)c1=O"
Response: 4.50

Prompt: // lookup pEC50 for "CC(C)CCn1ccc(N2CCN(c3ccccc3)CC2)c(C#N)c1=O"
Response: 6.18

Prompt: Can you look up the measured pEC50 of "N#Cc1c(N2CCC(c3ccccc3)CC2)ccn(CC2CC2)c1=O" for me?
Response: 6.82
